- Assay System: Endoribonuclease toxin MazF (Escherichia coli K-12)
- Sequence (P0AE70 whole entry): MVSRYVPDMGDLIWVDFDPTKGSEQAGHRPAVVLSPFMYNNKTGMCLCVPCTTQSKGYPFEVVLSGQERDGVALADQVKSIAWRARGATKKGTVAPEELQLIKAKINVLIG
- Method Summary: substrate-only fluorescence increase artefacts – biochemical, single-stranded RNase substrate, counter-screen for MazEF activator project, dose response (AID 588502)
- Format: functional
Active and inactive are the calls of the source.
Answer with one of the outcomes given here: true for active, false for inactive

> print(dat)
                               smiles.input  assigned.category
1  CCCCOC(=O)Cn1c2ccc(OC)cc2c2nc3ccccc3nc21              false
2  CC1=NN(c2ccccc2)C(=O)/C1=C/c1cc(C)n(C2CC2)c1C              false
3           COc1ccc2nc(SCC(C)=O)c(C#N)cc2c1               true

Lab note: next molecule to report on.
# input How was "Cc1cccc2cc3c(N)c(C#N)sc3nc12" classified in this test?
# output false

* * *

- Method Summary: NIH-3T3 fibroblast cytotoxicity, dose response, cytotoxicity control, cell-based, fluorescence, Alamar Blue, secondary assay (AID 2327);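 note: NIH-3T3 mouse fibroblasts cultured with fluconazole at 8 µg/mL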
- Format: functional
The source made the active and inactive calls.
Item-by-item account of EC50

Example entries begin here.
> print(dat)
                                   compound     recorded.measurement
1                    Cc1cc(C)c2ccc(N)nc2c1O  > 150 µM (inconclusive)
2  CC1CCCCN1S(=O)(=O)c1ccc(NC(=O)c2cccc(-n3cnnn3)c2)cc1 (centres undefined)      > 150 µM (inactive)
3  Cc1cc(C)c2nc(NNC(=O)c3cc(-c4cccs4)nc4ccccc34)sc2c1         10.7 µM (active)

Now look at this one.
# input Look at this compound and give its reported EC50. "CC(C)(C)c1ccc(OCCCC(=O)NNC(=O)c2ccccc2O)cc1"
# output 51 µM (inconclusive)

* * *

- Method Summary: Luminescence Cell-Based Dose Confirmation HTS to Identify Activators of 5'UTR Stem-Loop Driven Alpha-Synuclein mRNA Translation in H4 Neuroglioblastoma Cells. [Related pubchem assays: 1829 (Project Summary), 1814 (Primary HTS)]
- Format: functional
Calls of active or inactive are those of the source.
Measured EC50 of individual entries

> print(dat)
                                   compound  recorded.measurement
1  CSc1ccc(C2c3[nH]c4ccccc4c3CCN2C(=O)c2cc(C)n(C)n2)cc1 (stereo not given)      14.2 µM (active)
2         Nc1ccc(C(=O)c2ccc3c(c2)OCCO3)cc1N      9.68 µM (active)
3  COc1cccc(NC(=O)C(=O)N/N=C(\C)CC(=O)Nc2ccc(NC(C)=O)cc2)c1     < 0.1 µM (active)

# input Quick one: EC50 for "Cc1ccc(C(=O)NCCC(=O)N2CCCC2)cc1" ?
# output 0.419 µM (active)

# input Suppose we examine the compound "O=C(c1cc2ccccn2n1)N1CCN(Cc2ccccc2)CC1" ; what EC50 value has been reported?
# output 6.68 µM (active)

* * *

- Assay System: Ubiquitin-conjugating enzyme E2 N (Homo sapiens);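 note: Dose-response confirmation in a TR-FRET assay detecting UBC13-driven polyubiquitin chain formation, inhibition measured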
- Sequence (P61088 whole entry): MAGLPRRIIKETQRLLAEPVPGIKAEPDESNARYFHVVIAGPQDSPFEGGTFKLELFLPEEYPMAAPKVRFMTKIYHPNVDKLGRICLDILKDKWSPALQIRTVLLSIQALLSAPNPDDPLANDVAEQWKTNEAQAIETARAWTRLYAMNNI
- Type: functional
Active and inactive are the calls of the source.
Just give me one of these, please: active, inactive

Consider the following illustrative entries.
> print(dat)
                                   molecule  assigned.category
1  CC/C(=C(\c1ccccc1)c1ccc(OCCN(C)C)cc1)c1ccccc1 [TAMOXIFEN]           inactive
2  COc1ccc(OCC(=O)NNC(=S)NC(=O)c2ccc([N+](=O)[O-])cc2)cc1           inactive
3  NC(=O)CCCn1c(C(=O)c2cc(Cl)c(N)c(Cl)c2)c2ccc([N+](=O)[O-])cc2[n+]1[O-]           inactive
4        CCc1ccc(O)c(CNCCNCc2cc(CC)ccc2O)c1           inactive

# input What is the recorded call for this molecule in the test? Cc1cc(C)c(NC(=O)C[N+](C)(C)CC(O)COc2cccc3ccccc23)c(C)c1 (centres undefined)
# output inactive

# input Could you kindly confirm the outcome this assay logged for "CCN(CC)CCOC(=O)c1ccc(N/C=C(/C#N)c2nc(-c3ccc(OC)c(OC)c3)cs2)cc1" ?
# output active

# input Answer briefly: the call reported for "O=C1/C(=C/c2cccc([N+](=O)[O-])c2)CSc2ccc(Cl)cc21" in this assay.
# output inactive

# input Which outcome did this test record for the molecule "C#CCOCCOCCOCCNc1nc(N2CCN(C(=O)[C@H]([C@@H](C)CC)n3cc(CCCN=C(N)N)nn3)CC2)nc(N2CCN(C(=O)[C@H](CCCCN)n3cc(CCCC)nn3)CC2)n1" ?
# output inactive

# input I'd appreciate the recorded outcome for "O=C(C[n+]1nc(CNc2ccc(Br)cc2)n2c1CCCCC2)c1ccc([N+](=O)[O-])cc1" from this test.
# output inactive

* * *

- Assay System: Glyceraldehyde-3-phosphate dehydrogenase (Homo sapiens, UniProt P04406)
- Sequence (P04406 whole entry): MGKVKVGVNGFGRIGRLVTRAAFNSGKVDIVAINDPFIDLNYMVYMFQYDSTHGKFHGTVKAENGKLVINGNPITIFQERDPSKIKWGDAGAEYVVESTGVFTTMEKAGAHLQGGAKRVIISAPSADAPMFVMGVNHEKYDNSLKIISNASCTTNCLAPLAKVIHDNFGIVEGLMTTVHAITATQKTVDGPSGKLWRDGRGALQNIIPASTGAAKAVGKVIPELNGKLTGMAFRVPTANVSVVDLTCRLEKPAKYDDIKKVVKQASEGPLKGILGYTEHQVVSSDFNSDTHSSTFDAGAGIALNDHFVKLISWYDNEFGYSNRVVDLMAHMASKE
Activity calls are given as the source filed them.
Measured Attribute: IC50

Guide cases for IC50, answers given:
> print(dat)
                                   compound                              assay.system   recorded.measurement
1          O=C(O)CSc1cccc2c(SCC(=O)O)cccc12  Glyceraldehyde-3-phosphate dehydrogenase (Homo sapiens, UniProt P04406)  > 100 µM (not active)
2  O=C(O)C1Nc2c(O)cc(Cl)c([N+](=O)[O-])c2C2C=CCC12 (stereo not given)  Glyceraldehyde-3-phosphate dehydrogenase (Homo sapiens, UniProt P04406)       37.8 µM (active)
3  O=C(CSc1nnc(-c2ccccc2)[nH]1)c1ccc(O)c(O)c1  Glyceraldehyde-3-phosphate dehydrogenase (Homo sapiens, UniProt P04406)  > 100 µM (not active)
4  Cc1cccc(N2CCN(C3=C(Cl)C(=O)N(c4ccc(Cl)c(Cl)c4)C3=O)CC2)c1C  Glyceraldehyde-3-phosphate dehydrogenase (Homo sapiens, UniProt P04406)  > 100 µM (not active)
5       O=C(CSc1ccccn1)Nc1ccc(O)c(C(=O)O)c1  Glyceraldehyde-3-phosphate dehydrogenase (Homo sapiens, UniProt P04406)  > 100 µM (not active)

Read the next record carefully.
# input Reported IC50 for "O=S(=O)(Nc1cnc2ccccc2c1)c1cc(Cl)ccc1Cl" : what is it?
# output > 100 µM (not active)

* * *

- Method Summary: cells
- Type: functional, cell-based
EC50 for assorted compounds

> print(dat)
                                   compound   recorded.measurement
1  CC(C(=O)N1CCOCC1)N1c2cccc3cccc(c23)S1(=O)=O (centres undefined)  > 350 µM (not active)

# input Can you share its EC50? I mean this compound: "COc1ccc(-n2c(C)cc(C(=O)CCl)c2C)cc1"
# output > 350 µM (not active)

# input Could you share which EC50 value was measured for CCCCCN(C(=O)CCC(=O)OCC(=O)c1ccc(C(C)CC)cc1)c1c(N)n(CCCC)c(=O)[nH]c1=O (centres undefined) ?
# output > 350 µM (not active)

# input Looking for the measured EC50 of Cc1oc(-c2ccc(Cl)cc2)nc1C[S+]([O-])CC(=O)NCCN1CCCCCC1 (centres undefined) , can you help?
# output > 350 µM (not active)

* * *

- Assay System: Aminopeptidase N (Plasmodium falciparum FcB1/Columbia, UniProt O96935)
- Sequence (O96935 whole entry): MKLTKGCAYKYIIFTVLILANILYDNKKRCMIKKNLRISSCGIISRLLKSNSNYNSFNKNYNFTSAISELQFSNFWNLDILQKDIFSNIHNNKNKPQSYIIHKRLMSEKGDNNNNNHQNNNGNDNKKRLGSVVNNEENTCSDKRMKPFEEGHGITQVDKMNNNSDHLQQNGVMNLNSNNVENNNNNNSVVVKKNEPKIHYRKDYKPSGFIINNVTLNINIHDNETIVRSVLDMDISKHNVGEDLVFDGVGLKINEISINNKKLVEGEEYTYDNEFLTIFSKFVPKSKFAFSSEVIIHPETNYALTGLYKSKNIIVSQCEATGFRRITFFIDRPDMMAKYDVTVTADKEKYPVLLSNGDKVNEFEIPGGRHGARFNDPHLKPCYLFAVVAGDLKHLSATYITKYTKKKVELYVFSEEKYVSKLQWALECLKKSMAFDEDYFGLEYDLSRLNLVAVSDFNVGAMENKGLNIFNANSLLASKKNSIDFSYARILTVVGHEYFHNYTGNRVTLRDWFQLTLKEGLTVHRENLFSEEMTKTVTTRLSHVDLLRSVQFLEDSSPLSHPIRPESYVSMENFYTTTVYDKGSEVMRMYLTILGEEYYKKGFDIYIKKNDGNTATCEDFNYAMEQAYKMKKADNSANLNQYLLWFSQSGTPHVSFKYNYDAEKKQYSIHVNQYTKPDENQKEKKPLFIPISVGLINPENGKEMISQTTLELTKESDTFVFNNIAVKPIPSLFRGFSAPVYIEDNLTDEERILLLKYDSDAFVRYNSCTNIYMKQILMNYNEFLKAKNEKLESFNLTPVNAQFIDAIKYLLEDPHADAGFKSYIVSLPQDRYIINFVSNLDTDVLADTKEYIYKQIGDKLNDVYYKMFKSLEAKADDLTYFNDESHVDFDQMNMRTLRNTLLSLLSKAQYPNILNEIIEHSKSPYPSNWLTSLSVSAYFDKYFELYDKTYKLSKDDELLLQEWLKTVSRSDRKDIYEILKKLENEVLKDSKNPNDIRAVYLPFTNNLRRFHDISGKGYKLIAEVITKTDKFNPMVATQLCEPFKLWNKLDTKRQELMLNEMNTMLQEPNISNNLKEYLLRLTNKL
- Method Summary: malaria alanyl aminopeptidase activity blockers – biochemical, fluorogenic H-Leu-NHMec substrate, 1536-well (AID 1445)
- Design: species or system Plasmodium falciparum 3D7, 3D7
The source made the active and inactive calls.
Measured Attribute: IC50

# input Find the recorded IC50 belonging to "O=C1N=C(NS(=O)(=O)Cc2ccccc2)S/C1=C1\C(=O)Nc2ccccc21" and report it.
# output 17.4 µM (active)

* * *

- Method Summary: blockers of HIV-1 ZM109 envelope-driven cell-cell fusion – HeLa effector, CEM target cells, luciferase, cherry-pick, dose response (AID 652058);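 note: luciferase signal from HIV-1 Env mediated cell-cell fusion of effector and target cells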
- Assay type: functional, cell-based
Calls of active or inactive are those of the source.
Measured Attribute: AC50

# input I'd like to know its AC50. The compound in question is "CC(C)(C)N1C(=O)[C@H]2[C@@H](c3ccc(Br)cc3)N3C(=O)N(c4ccccc4)C(=O)[C@@]3(C)[C@H]2C1=O"
# output 1.08 µM (active)

# input // query AC50 value for entry "C[C@H](CO)N1C[C@H](C)[C@H](CN(C)S(=O)(=O)c2ccccc2)Oc2ccc(NC(=O)NC3CCCCC3)cc2CC1=O"
# output 0.98 µM (active)

# input # AC50 lookup, item "C[C@H](CO)N1C[C@H](C)[C@@H](CN(C)Cc2ccc(Cl)c(Cl)c2)Oc2ccc(N(C)C)cc2C1=O"
# output 5.9 µM (active)

# input Name the reported AC50 value associated with the compound "Cc1cc(Cl)ccc1OCCCC(=O)Nc1cc(S(=O)(=O)N2CCOCC2)ccc1N1CCOCC1"
# output 5.3 µM (active)

# input State the recorded AC50 for this entry: "Cc1cccc2cc3c(N)c(C#N)sc3nc12"
# output 6.95 µM (active)

# input Suppose we examine the compound "Cc1nc2sccn2c1-c1csc(NCc2ccccc2)n1" ; what AC50 value has been reported?
# output 10.1 µM (active)
